# ASSAY_INFO: Pharmacokinetics of chemotherapy components before
# CONDITION_LABEL: human, in vivo, Cmax, geometric mean, Cycle 1 day 1, before regorafenib dosing
MEASURE: Cmax (ng/mL)

* CCc1c2c(nc3ccc(OC(=O)N4CCC(N5CCCCC5)CC4)cc13)-c1cc3c(c(=O)n1C2)COC(=O)[C@]3(O)CC | 1900

###

# ASSAY_INFO: Pharmacokinetics of chemotherapy components before
# CONDITION_LABEL: human, in vivo, AUC, geometric mean, Cycle 1 day 1, before regorafenib dosing
MEASURE: AUC

* CCc1c2c(nc3ccc(OC(=O)N4CCC(N5CCCCC5)CC4)cc13)-c1cc3c(c(=O)n1C2)COC(=O)[C@]3(O)CC | 10700 ng·h/mL
